B1: Transcription intermediary factor 1-beta, residues 620 to 671; numbered along this chain, Q13263 (parent)
chain: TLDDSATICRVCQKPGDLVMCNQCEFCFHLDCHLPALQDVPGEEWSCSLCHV

- Variants of: B1
- protocol: abundance fitness (aPCA) (normalised: wild type 0, dead -1); higher = more abundant; growth selection in yeast, the domain comes from the species named
- condition context: Homo sapiens
metric name: abundance fitness
Answer field: number only, no words.

A selection of reference data follows.
V40C ... -0.401
S46Y ... -0.245
G16P ... -0.945
L2Y ... 0.045
G42M ... -0.091

Next, consider the following variant.
Query block: Dear colleague, please send me the reported abundance fitness for `C21M` when you can.
Result block: -1.24
